- assayText: Rat Pharmacokinetic (PK) Studies
- Format: in vivo, Sprague-Dawley rats
- experimentalContext: male, Sprague-Dawley, plasma, 1 mg/kg PO vs 0.5 mg/kg IV cassette dose
Readings of bioavailability for the listed molecules
The reply should be a number in %, with the unit left off.

C[C@]1(CO)Cn2ncc([S@](N)(=O)=NC(=O)Nc3c4c(cc5c3CC5)CC4)c2O1 : 53
CC1(C)Cn2ncc(S(N)(=O)=NC(=O)Nc3c4c(cc5c3CC5)CCC4)c2O1 (stereo not drawn) : 39
CC1(C)COc2c(S(N)(=O)=NC(=O)Nc3c4c(cc5c3CCC5)CCC4)cnn2C1 (stereo not drawn) : 45
CNC1COc2c(S(N)(=O)=NC(=O)Nc3c4c(c(F)c5c3CC5)CC4)cnn2C1 (stereo not drawn) : 32
CC1(C)COc2c(S(N)(=O)=NC(=O)Nc3c4c(cc5c3CC5)CC4)cnn2C1 (stereo not drawn) : 126
CC1(C)Cn2ncc(S(N)(=O)=NC(=O)Nc3c4c(cc5c3CCC5)CCC4)c2O1 (stereo not drawn) : 91

bioavailability measured on C[C@@H]1COc2c(S(N)(=O)=NC(=O)Nc3c4c(cc5c3CCC5)CCC4)cnn2C1 (single isomer, unassigned) = 28

COC1CN(C2COc3c(S(N)(=O)=NC(=O)Nc4c5c(cc6c4CC6)CC5)cnn3C2)C1 (stereo not drawn) has a reported bioavailability of 33

So, C[C@]1(CO)Cn2ncc([S@](N)(=O)=NC(=O)Nc3c4c(c(F)c5c3CC5)CC4)c2O1 ? Its bioavailability was 48

The molecule listed as CC1(C)Cn2ncc(S(N)(=O)=NC(=O)Nc3c4c(cc5c3CC5)CC4)c2O1 (stereo not drawn) shows bioavailability equal to 85

Lab note: CC1(CO)Cn2ncc(S(N)(=O)=NC(=O)Nc3c4c(cc5c3CCC5)CCC4)c2O1 (stereo not drawn) gave bioavailability of 36

bioavailability measured on NS(=O)(=NC(=O)Nc1c2c(cc3c1CC3)CC2)c1cnn2c1OCC2 (stereo not drawn) = 54

###

- testedSystem: hPXR nuclear receptor (Homo sapiens, UniProt O75469)
- Construct: expressed in transfected cells
- Sequence (O75469 1-434): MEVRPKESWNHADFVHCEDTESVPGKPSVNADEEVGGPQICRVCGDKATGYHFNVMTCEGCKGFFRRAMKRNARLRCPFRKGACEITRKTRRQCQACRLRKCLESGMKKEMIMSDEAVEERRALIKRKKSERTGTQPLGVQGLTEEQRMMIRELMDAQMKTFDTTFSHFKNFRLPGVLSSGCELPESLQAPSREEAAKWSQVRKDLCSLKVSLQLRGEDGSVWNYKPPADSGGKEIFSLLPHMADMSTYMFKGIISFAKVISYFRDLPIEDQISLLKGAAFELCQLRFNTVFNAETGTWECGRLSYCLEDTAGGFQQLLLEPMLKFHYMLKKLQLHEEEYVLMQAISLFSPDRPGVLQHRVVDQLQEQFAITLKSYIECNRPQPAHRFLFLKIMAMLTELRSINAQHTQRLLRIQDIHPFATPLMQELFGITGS
- assayText: PXR Activation Assay
- Type: cell-based
- experimentalContext: relative to positive control (rifampicin)
- Method: Hepatoma cells either expressing an endogenous human […] or transfected with the hPXR nuclear receptor and the corresponding response elements were seeded in a 96-well plate. […] At the end of this incubation period, the number of viable cells/well was determined using Promega's Cell Titer Fluor cytotoxicity assay. Following this assay, Promega's ONE-Glo was added to the same wells and reporter gene activity assessed. […]
property: % PXR activation @ 10 μM (%)
Write the number in % without appending the unit.

C[C@@H]1COc2c(S(N)(=O)=NC(=O)Nc3c4c(cc5c3CCC5)CCC4)cnn2C1 (single isomer, unassigned) [XG] : 25

The molecule identified as CC1(CO)Cn2ncc(S(N)(=O)=NC(=O)Nc3c4c(cc5c3CCC5)CCC4)c2O1 (stereo not shown) [XN] registered its % PXR activation @ 10 μM at 6.2

The molecule identified as CNC1COc2c(S(N)(=O)=NC(=O)Nc3c4c(c(F)c5c3CC5)CC4)cnn2C1 (stereo not shown) [XO] registered its % PXR activation @ 10 μM at 3.3

Looking up CC1(C)Cn2ncc(S(N)(=O)=NC(=O)Nc3c4c(cc5c3CCC5)CCC4)c2O1 (stereo not shown) [XB] , I found its % PXR activation @ 10 μM recorded as 74
